Molecular target: calf thymus/mouse ribonucleotide reductase (mammalian RR) (Bos taurus)
Sequence (Q32LP1 1-791): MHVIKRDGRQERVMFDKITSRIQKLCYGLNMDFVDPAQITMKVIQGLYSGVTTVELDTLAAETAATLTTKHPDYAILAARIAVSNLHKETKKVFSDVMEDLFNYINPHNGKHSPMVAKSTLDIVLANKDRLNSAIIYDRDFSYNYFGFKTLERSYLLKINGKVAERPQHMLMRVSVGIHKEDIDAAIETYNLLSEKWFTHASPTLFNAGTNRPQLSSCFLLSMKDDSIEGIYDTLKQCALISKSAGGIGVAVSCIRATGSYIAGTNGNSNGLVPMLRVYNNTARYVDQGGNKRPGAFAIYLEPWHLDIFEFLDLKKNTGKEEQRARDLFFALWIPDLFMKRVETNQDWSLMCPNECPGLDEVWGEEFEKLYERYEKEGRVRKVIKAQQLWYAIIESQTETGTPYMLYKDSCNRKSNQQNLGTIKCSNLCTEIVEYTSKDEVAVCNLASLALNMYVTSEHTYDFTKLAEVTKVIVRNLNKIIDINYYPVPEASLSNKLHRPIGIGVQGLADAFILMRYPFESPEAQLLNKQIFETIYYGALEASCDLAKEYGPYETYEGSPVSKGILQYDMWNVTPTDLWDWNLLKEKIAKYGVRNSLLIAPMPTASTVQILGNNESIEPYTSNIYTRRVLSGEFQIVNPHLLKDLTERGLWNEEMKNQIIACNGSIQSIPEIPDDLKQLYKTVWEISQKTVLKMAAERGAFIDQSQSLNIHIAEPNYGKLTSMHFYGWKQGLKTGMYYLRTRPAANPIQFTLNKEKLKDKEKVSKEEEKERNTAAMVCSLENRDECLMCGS
Test: biochemical
Details: read-out: IC50, concentration of peptide producing 50% inhibition of activity; Table 4; mammalian RR; Dixon plots of 4-6 concentration points; ranges are two independent determinations on different days
pIC50: −log10 of the molar value.
ENDPOINT: pIC50

                    substance  endpoint  observed_result
0  Ac- (FTFTADF) [Peptide 14]     pIC50     4.24 to 4.32

Recorded values, source patent US5459063A.
